Molecular target: Cyclin-dependent kinase 5/CDK5 activator 1 (Homo sapiens, UniProt Q00535)
Sequence (Q00535 whole entry): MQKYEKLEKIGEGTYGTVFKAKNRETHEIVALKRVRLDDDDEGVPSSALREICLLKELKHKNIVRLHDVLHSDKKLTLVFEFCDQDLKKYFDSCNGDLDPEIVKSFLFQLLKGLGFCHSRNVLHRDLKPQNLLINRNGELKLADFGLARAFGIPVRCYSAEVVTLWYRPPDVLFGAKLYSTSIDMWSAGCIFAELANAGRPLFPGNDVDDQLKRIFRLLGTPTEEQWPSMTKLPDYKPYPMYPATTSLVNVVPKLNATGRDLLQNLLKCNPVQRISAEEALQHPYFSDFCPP
Sequence (Q15078 whole entry, further chain): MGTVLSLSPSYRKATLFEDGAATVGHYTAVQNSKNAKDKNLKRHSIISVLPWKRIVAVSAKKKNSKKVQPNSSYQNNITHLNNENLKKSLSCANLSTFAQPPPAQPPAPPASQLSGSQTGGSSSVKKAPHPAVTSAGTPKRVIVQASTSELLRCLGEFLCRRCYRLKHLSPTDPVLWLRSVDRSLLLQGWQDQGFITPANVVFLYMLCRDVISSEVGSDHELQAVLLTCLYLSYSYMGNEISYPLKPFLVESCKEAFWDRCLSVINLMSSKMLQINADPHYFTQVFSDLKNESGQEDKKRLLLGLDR
pIC50: −log10 of the molar value.
experimentalEndpoint: pIC50

Some molecules with known pIC50 results, for comparison:
molecule=CC(C)(C)OC(=O)N1CCC(CNC2=N/C(=C\c3ccc4ncsc4c3)C(=O)N2)CC1 reportedmeasurement="< 5.00"
molecule=CC(=O)OC12CC3CC(CC(NC4=N/C(=C\c5ccc6ncsc6c5)C(=O)N4)(C3)C1)C2 reportedmeasurement=5.33
molecule=COC(=O)[C@H](C)NC1=N/C(=C\c2ccc3ncsc3c2)C(=O)N1 reportedmeasurement="< 5.00"
molecule=CC(=O)NC12CC3CC(C1)CC(NC1=N/C(=C\c4ccc5ncsc5c4)C(=O)N1)(C3)C2 reportedmeasurement=6.21

Request: State, in one line, measured pIC50 of O=C1NC(NCCCn2ccnc2)=N/C1=C\c1ccc2ncsc2c1
Response: < 5.00

Request: Could you please provide reported pIC50 for O=C1NC(N[C@@H](CO)Cc2ccccc2)=N/C1=C\c1ccc2ncsc2c1 ? Thanks!
Response: < 5.00

Request: Specify reported pIC50 for the molecule shown: O=C1NC(Nc2cccc(C(F)(F)F)c2)=N/C1=C\c1ccc2ncsc2c1
Response: < 5.00

Request: Report measured pIC50; entry is CO[C@H]1Cc2ccccc2[C@H]1NC1=N/C(=C\c2ccc3ncsc3c2)C(=O)N1 (racemic)
Response: < 5.00

Request: Identify measured pIC50 associated with O=C1NC(N[C@H]2CC[C@H](O)CC2)=N/C1=C\c1ccc2ncsc2c1
Response: 5.31

Request: Specify reported pIC50 for the molecule shown: O=C1NC(NC23CC4CC(CC(C4)C2)C3)=N/C1=C\c1ccc2[nH]cnc2c1
Response: < 5.00

Request: Please give measured pIC50 of the following entry: Cn1cnc2cc(/C=C3\N=C(NC45CC6CC(CC(C6)C4)C5)NC3=O)ccc21
Response: < 5.00

Request: Check the records and state pIC50 for CO[C@@H]1CCCC[C@H]1NC1=N/C(=C\c2ccc3ncsc3c2)C(=O)N1
Response: < 5.00

Request: Supply reported pIC50 belonging to this molecule: Cc1cnc(CNC2=N/C(=C\c3ccc4ncsc4c3)C(=O)N2)cn1
Response: < 5.00
